Settings: 331.16 K; 101.33 kPa; Liquid; Vibrating tube method
measure.name: mass density (kg/m3)
Answers are plain numbers, in kg/m3.

Consider the worked cases shown below.
CCCC(=O)[O-].C[NH2+]CCO [N-methyl-2-hydroxyethylammonium butanoate] = 1016.66
CCC(=O)[O-].C[NH2+]CCO [2-hydroxy-N-methylethanaminium propionate] = 1049.39
CC(C)C(=O)[O-].C[NH2+]CCO [2-hydroxy-N-methylethanaminium isobutyrate] = 1021.63
CCCCC(=O)[O-].C[NH2+]CCO [2-hydroxy-N-methylethanaminium pentanoate] = 993.649
CC(=O)[O-].C[NH2+]CCO [N-methyl-2-hydroxyethylammonium acetate] = 1080.61

Alright, here's another molecule for you.
Quick check: mass density of C[NH2+]CCO.O=C[O-] [2-hydroxy-N-methylethanaminium formate] ? 1109.99
